experiment: cell-permeable autofluorescent compounds in GFP channel, dose response, artefact control, imaging, high-content imaging (AID 2124); conditions: cells, GFP-channel autofluorescence, high-content imaging; cell count; at 10 µM;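 further: cells exposed to compound for 48 hours before fixing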
Records with an inconclusive call do not appear.
cell count vs 3000 cells: less than gives true; not less than gives false.

Please review the following examples before continuing.
{"COMPOUND": "CN1/C(=C\\C=C2/SC(=S)NC2=O)C(C)(C)c2ccccc21", "ANSWER_LABEL": "true"}
{"COMPOUND": "O=c1ccnc(Nc2ccc3c(c2)OCCO3)[nH]1", "ANSWER_LABEL": "true"}
{"COMPOUND": "CCN(CC)CCN1C(=O)c2oc3ccccc3c(=O)c2C1c1ccccc1 (stereo not given)", "ANSWER_LABEL": "false"}
{"COMPOUND": "CC(=O)c1ccc2cccc3c2c1N=CN3C", "ANSWER_LABEL": "false"}
{"COMPOUND": "N#Cc1c(NC(=S)NC(=O)c2ccccc2)sc2c1CCN(CCc1ccccc1)C2", "ANSWER_LABEL": "true"}
{"COMPOUND": "CC1=NNC(=O)C1CCC(=O)N/N=C/c1ccc(C)cc1 (stereo not given)", "ANSWER_LABEL": "false"}

Req: hey, is cell count for Cc1cccc2sc(NC(=O)C3CCCN(S(=O)(=O)c4cccc5nonc45)C3)nc12 (stereo not given) lower than 3000 cells or not?
Resp: false

Req: Is cell count strictly under 3000 cells for the entry CC1(C)Cc2c(ccc3ccccc23)C(c2cc3ccccc3oc2=O)=N1 ?
Resp: true

* * *

assay: cell-permeable autofluorescent compounds in GFP channel, dose response, artefact control, imaging, high-content imaging (AID 2124); conditions: cells, GFP-channel autofluorescence, high-content imaging; cell count; at 10 µM;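 further: cells exposed to compound for 48 hours before fixing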
Results filed as inconclusive are left out.
Consider the following compounds; for each one, report its cell count.
Give bare numbers, in cells.

The following compounds have reported results that may help.
{"COMPOUND": "CC(C)CNC(=O)CSc1nnc(-c2cccc(S(=O)(=O)N3CCCCC3)c2)o1", "UNIT_SPEC": "cells", "cell count": 2900}
{"COMPOUND": "CCOC(=O)N1CCN(C(=O)c2cc(S(=O)(=O)N3CCCC3)cn2C)CC1", "UNIT_SPEC": "cells", "cell count": 3250}
{"COMPOUND": "CCn1cc(C(=O)NCCN(C)CCc2ccccc2)c(=O)c2cc(S(=O)(=O)N(C)C)ccc21", "UNIT_SPEC": "cells", "cell count": 3360}
{"COMPOUND": "COc1cc2nc(/C=C/c3ccc(N(C)C)cc3)sc2cc1SC", "UNIT_SPEC": "cells", "cell count": 2900}
{"COMPOUND": "CCOC(=O)CNC(=O)c1cn(C)c(=O)c2cc(OC)c(OC)cc12", "UNIT_SPEC": "cells", "cell count": 3170}

Consider the following items and state reported cell count for each.
1. COc1ccc(N=C2NC(=O)S/C2=C\c2ccc(N(C)C)cc2)cc1
2. COc1ccc(C(=O)c2sc3nc(-c4ccccc4)ccc3c2N)cc1OC
3. O=[N+]([O-])c1ccc(C2=NN(c3ccccc3)C(c3ccco3)C2)cc1 (configuration not stated)
4. CC(/C=N/NC(=O)c1ccncc1)=C\c1ccc(C(C)C)cc1
5. C=CCSc1nnc(NC(=O)c2cccc(S(=O)(=O)N3CCOCC3)c2)s1

Resp:
1. 2870
2. 2560
3. 3180
4. 2700
5. 2670

Record cell count per entry; entries follow.
1. COc1ccc(OC)c(C2=NOC(C(=O)NCC3CCCO3)C2)c1 (configuration not stated)
2. OC1(c2cn(Cc3ccccc3)nn2)CCCCC1

Resp:
2830
3100
